Reported apparent KD of K4 kissing-loop reporter is given for each of the following sequences.
# System: K4 kissing-loop RNA reporter;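 also: bound reporter read as fluorescence of individual clusters on recovered sequencing chips by microscopy, with normalized cluster intensities fitted with a binding model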
# PROCEDURE TEXT: apparent KD of K4 kissing-loop reporter; higher = weaker reporter binding
# EXPERIMENTAL CONDITIONS: Eterna round: R107; input ligand: tryptophan 2.4 mM

{"SEQ TEXT": "UCAUGAAAGACGGCCGCCACUGAUGCUGGAGUGAUGUUUCGGACAUAGUAGAGUGAUGUUCUGCGCAGGACCGGGUCGUCAUGAA [KL-SSTryp-B10 #double Kiss]", "TARGET ENTITY": "K4 kissing-loop RNA reporter", "apparent KD of K4 kissing-loop reporter (nM)": 62}
{"SEQ TEXT": "AGAGUUUUAUGAGGAUAUGAGAUAGUUAAUGAGUGAGUUAUAGUGUAGUUUGUUUAGUGAUGUUAUUUAGAAGGCGUGAGUGAUG [ssxsmullin]", "TARGET ENTITY": "K4 kissing-loop RNA reporter", "apparent KD of K4 kissing-loop reporter (nM)": 84.4}
{"SEQ TEXT": "AGAUGUUUAGCUCAAAGAACGAAAAUGGAAGGAGCGUGCGAAAGCACAGGUAGGUCGCCAGUGAUGUUGGAACCUGAGCAUCAAA [#SwitchBubble 16 #K4Late]", "TARGET ENTITY": "K4 kissing-loop RNA reporter", "apparent KD of K4 kissing-loop reporter (nM)": 230}
{"SEQ TEXT": "CCCAAGGGCCUACCGGUAUUAUUAACGGAUACCAGAGGCGAAAGCCUCCCUUGGCAGCCGGGUGUAGUGAUGUUACUCCGGUAGU", "TARGET ENTITY": "K4 kissing-loop RNA reporter", "apparent KD of K4 kissing-loop reporter (nM)": 78.1}
{"SEQ TEXT": "UAUUAAUUGUCAGGAUAUCGUAUUCGAGUGAUGUUCGUAUAUCGACGAUAGUCGAUUCUAUCUAUACGAGAAGGGACAUUAUUUA [JR_SSFMNB_Sub007]", "TARGET ENTITY": "K4 kissing-loop RNA reporter", "apparent KD of K4 kissing-loop reporter (nM)": 755}
{"SEQ TEXT": "CUAUCUUAAGAAGGAUAUUAUGUAACAAACGCAGGCGUAUUAGAAUCAGUGAUGUUGAAAUAGGUUUAAGAAGGUCUUAAAGAAA [theeternabot_sameState_KL_FMN_B_31]", "TARGET ENTITY": "K4 kissing-loop RNA reporter", "apparent KD of K4 kissing-loop reporter (nM)": 243}

src = the supplement of paper PMC9170038
